Values compiled from the EternaBench riboswitch data.

- Test system: MS2 coat protein
- Protocol: apparent Kd, MS2 coat protein; higher = weaker binding; RNA-MaP array; FMN 200 µM where present
- Condition notes: ligand present: flavin mononucleotide; designed as: OFF switch for flavin mononucleotide
Label Satisfied when apparent Kd >= 80 nM; otherwise Not satisfied.

*Q* Say whether GUGACUUAUAGAGGAUAUUGACAUGAGGAUCACCCAUGUAUUUGGGAGUGUUCACUGAAUUCUUACGAGAAGGCUAUAAGACAC shows apparent Kd of 80 nM or more.
*A* Satisfied

*Q* Form field: apparent Kd at least 80 nM? Entry: AUACAUGAGGAUCACCCAUGUUACUGGGUCUUAAUAGAACGUAGAAGGAUGAUUUUAUAAAUAACAUAGGAUAUACAAUAUUGU
*A* Satisfied

*Q* Is reported apparent Kd greater than or equal to 80 nM here: AAAAAACAUGAGGAUCACCCAUGUCAGGAUAUCCGAAAAAAAAAAAAAAAAAAAAAAAGGAGAAGGGACAAAAA
*A* Satisfied

*Q* API: above_or_equal(metric=apparent Kd, cutoff=80 nM) for item GCGUCAGAAUUAAUUGUGACAGACAGAAGGCAAUAGUUCAUGUCAGACAUGAGGAUCACCCAUGUUGAGGAUAUGUAUUUACAC
*A* Not satisfied

*Q* hey, is apparent Kd for this one >= 80 nM? GUACGUGGACAGAAGGUGACAUGAGGAUCACCCAUGUUAGUUGAGGUACCAGCGAUCCGCGUGAUUGAGGAUAUGUCUGCGGGC
*A* Not satisfied

*Q* Check the entry GCCUUAUCAGUCAGGAUAUACAAUAAAAUAAUUAAGUAGAAGGGACAUGAGGAUCACCCAUGUACAUUACAUUG : does apparent Kd equal or exceed 80 nM?
*A* Not satisfied

----------
Provide the recorded apparent Kd for the entries that follow.
- Test system: MS2 coat protein
- Protocol: apparent Kd, MS2 coat protein; higher = weaker binding; RNA-MaP array; FMN 200 µM where present
- Condition notes: designed as: OFF switch for flavin mononucleotide; no ligand
Please give the number followed by its unit.

*Q* Given the entry ACAAGAUCAGGAUAUACAUGAGGAUCACCCAUGUAUAUCAAAAAAGGGCCUUCUACAUGUAGAAGGGAUCUUGU , report its measured apparent Kd.
*A* 13.1 nM

*Q* Reported apparent Kd, sequence CUGUUCCAUGUAGGAUAUGCAUAUUCUCAUUAUGCAGAAGGACAUGAGGAUCACCCAUGUAUGUUAUUAUCAUAUGUUACAUGU : ____
*A* 34.3 nM

*Q* Name the reported apparent Kd value associated with the sequence GUUGUUACUGAGGAUAUUAUUUUAUUCGAUUGAUAAGAAGGCAGUACAUGAGGAUCACCCAUGUGGGUAGUUUG
*A* 355 nM

*Q* Entry AGUCGGAGCAGAGGAUAUAUACAUGAGGAUCACCCAUGUAAAUGGAAUAGCUGGAAACAGCAAGUAUAGAAGGCUGCUCCGACA : reported apparent Kd = ?
*A* 39.5 nM

*Q* Entry AACAUGUGAGGAUAUUAGUUGUACGUCAAUAGACGUAUAAGUGAGAAGGCACAUGAGGAUCACCCAUGUUCCUG has what apparent Kd?
*A* 43.7 nM

*Q* Data request, read-out apparent Kd, for GGUCGUCAAGUCAGGAUAUCGUUUAGUCGAUGUAACGAGAAGGGACAUGAGGAUCACCCAUGUCGUCUCAUCAG
*A* 18.9 nM

*Q* What measured apparent Kd goes with UCAUUUCAGUAAGGAUAUUUAUUCAUGACGAUACAUGAGGAUCACCCAUGUAAAGAAGGUACUAAUACAAAUAAUGCAUUGUUC ?
*A* 11.9 nM
